Value source: ChEMBL document CHEMBL1136454

# Test details: In vivo total clearance was determined in murine septicemia at dose of 100 mg/kg
# Type: ADME, organism-based
# Design: dose 100 mg/kg
# Test parameters: mouse, read-out: CLtotal (converted)
Assay readout: clearance (mL/min/kg)
// return numeric value only (unit: mL/min/kg, not printed)

The compound listed as CCCCCCCCCC(=O)N[C@@H](Cc1c[nH]c2ccccc12)C(=O)N[C@H](CC(N)=O)C(=O)N[C@@H](CC(=O)O)C(=O)N[C@@H]1C(=O)NCC(=O)N[C@@H](CCCNC(=O)c2ccccc2N)C(=O)N[C@@H](CC(=O)O)C(=O)N[C@H](C)C(=O)N[C@@H](CC(=O)O)C(=O)NCC(=O)N[C@H](CO)C(=O)N[C@@H]([C@H](C)CC(=O)O)C(=O)N[C@@H](CC(=O)c2ccccc2N)C(=O)O[C@@H]1C has a reported clearance of 1.1
